Where these numbers come from: patent US20210388081A1

# EXPERIMENTAL_TARGET: T1, FcRL2, overexpressed on 3T3 cells (UniProt Q96LA5 20-508, limits assumed)
# T1 construct: whole, on cells
# T1 sequence (looked up): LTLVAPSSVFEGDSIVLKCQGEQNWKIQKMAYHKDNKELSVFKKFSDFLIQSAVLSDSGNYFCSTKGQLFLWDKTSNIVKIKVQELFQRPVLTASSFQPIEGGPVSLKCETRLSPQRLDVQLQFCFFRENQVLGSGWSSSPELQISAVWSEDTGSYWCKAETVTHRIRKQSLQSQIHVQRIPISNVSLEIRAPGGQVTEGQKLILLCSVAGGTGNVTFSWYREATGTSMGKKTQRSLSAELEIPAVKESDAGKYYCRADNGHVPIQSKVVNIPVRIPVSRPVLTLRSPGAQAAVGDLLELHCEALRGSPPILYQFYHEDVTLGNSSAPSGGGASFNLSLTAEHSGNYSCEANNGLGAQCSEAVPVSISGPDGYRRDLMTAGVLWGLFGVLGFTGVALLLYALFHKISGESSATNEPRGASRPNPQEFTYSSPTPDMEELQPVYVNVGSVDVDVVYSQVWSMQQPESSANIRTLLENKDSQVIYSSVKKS
# PROTOCOL: phage clone on 3T3-FcRL2 cells
ATTRIBUTE_MEASURED: binding result

Worked cases, answers included:
ET200-109 (scFv, screened as phage clone; entry is VL-linker-VH-His tag-HA tag) scFv: LPVLTQPPSASATPGQRVTISCSGTTSNIGSNTVHWYQQLPGTAPKLLIYNNNQRPSGVPDRFSGSKSGTSASLAISGLRSEDEATYSCATWDDSLSGVVFGGGTKLTVLGSRGGGGSGGGGSGGGGSLEMAEVQLVQSGAEVKKPGSSVKVSCKASGGTFSSYAISWVRQAPGQGLEWMGGIIPIFGTANYAQKFQGRVTITADESTSTAYMELSSLRSEDTAVYYCARDPAYGDYEYDAFDIWGQGTMVTVSSTSGQAGQHHHHHHGAYPYDVPDYAS | no binding
ET200-010 (scFv, screened as phage clone; entry is VL-linker-VH-His tag-HA tag) scFv: QSALTQPASVSGSPGQSITISCTGTSSDVGGYNSVSWYQQHPGKAPRLMIYDVSNRPSGVSNRFSGSKSGNTASLTISGLQAEDEADYYCSSYTSSSTPLVFGTGTKVTVLGSRGGGGSGGGGSGGGGSLEMAQVQLVQSGAEVKKPGASVKVSCKASGYTFTSYGISWVRQAPGQGLEWMGWISAYNGNTNYAQKLQGRVTMTTDTSTSTAYMELRSLRSDDTAVYYCARGAVAYHDWGQGTLVTVSSTSGQAGQHHHHHHGAYPYDVPDYAS | no binding
ET200-030 (scFv, screened as phage clone; entry is VL-linker-VH-His tag-HA tag) scFv: QSVVTQPPSVSGAPGQRVTISCTGSSSNIGAGYDVNWYQQFPGTAPKLLIYGNSNRPSGVPDRFSGSKSGTSASLAITGLQAEDEADYYCQSYDSSLSGSYVFGTGTKVTVLGSRGGGGSGGGGSGGGGSLEMAQMQLVQSGAEVKKPGASVKVSCKASGYTLTELSMHWVRQAPGKGLEWMGGFDPEDGETIYAQKFQGRVTMTEDTSTDTAYMELSSLRSEDTAVYYCARMSSMYYDWGQGTLVTVSSTSGQAGQHHHHHHGAYPYDVPDYAS | no binding
ET200-040 (scFv, screened as phage clone; entry is VL-linker-VH-His tag-HA tag) scFv: QSVLTQPPSVSGAPGQRVTISCTGSSSNIGAGYDVHWYQQLPGTAPKLLIYGNSNRPSGVPDRFSGSKSGTSASLAITGLQAEDEADYYCQSYDSSLSGYVFGTGTKVTVLGSRGGGGSGGGGSGGGGSLEMAQVQLVQSGAEVKKPGASVKVSCKVSGYTLTELSMHWVRQAPGKGLEWMGGFDPEDGETIYAQKFQGRVTMTEDTSTDTAYMELSSLRSEDTAVYYCARYSGVYYDWGQGTLVTVSSTSGQAGQHHHHHHGAYPYDVPDYAS | no binding
ET200-016 (scFv, screened as phage clone; entry is VL-linker-VH-His tag-HA tag) scFv: SSELTQDPAVSVALGQTVKITCQGDSLTDYHATWYQQKPGQAPVAVIYATNNRPTGIPDRFSGSSSGNTASLTITGAQAEDEADYYCNSRDSGTDEVLFGGGTKLTVLGSRGGGGSGGGGSGGGGSLEMAEVQLVETGGGLVKPGGSLRLSCAASGFTFSSYSMNWVRQAPGKGLEWVSSISSSSSYIYYADSVKGRFTISRDNAKNSLYLQMNSLRAEDTAVYYCARGQGYDYWGQGTLVTVSSTSGQAGQHHHHHHGAYPYDVPDYAS | no binding

Can you share its binding result? I mean this binder: ET200-021 (scFv, screened as phage clone; entry is VL-linker-VH-His tag-HA tag) scFv: QSVLTQPPSVSAAPGQKVTISCSGSNSNIGNNYVSWYQQLPGTAPKLLIYDNNKRPSGIPDRFSGSRSGTSATLGITGLQTGDEADYYCGTWNTTVTPGYVFGTGTKVTVLGSRGGGGSGGGGSGGGGSLEMAEVQLVQSGAEVKKPGASVKVSCKASGYTFTSYGISWVRQAPGQGLEWMGWISAYNGNTNYAQKLQGRVTMTTDTSTSTAYMELRSLRSDDTAMYYCARSVYDLDTWGQGTLVTVSSTSGQAGQHHHHHHGAYPYDVPDYAS no binding

Can you share its binding result? I mean this binder: ET200-033 (scFv, screened as phage clone; entry is VL-linker-VH-His tag-HA tag) scFv: NFMLTQPHSVSESPGKTVTISCTGSSGSIASNYVQWYQQRPGSAPTTVIYEDNQRPSGVPDRFSGSIDSSSNSASLTISGLKTEDEADYYCQSYDSSNHWVFGGGTKLTVLGSRGGGGSGGGGSGGGGSLEMAQVQLQQWGAGLLKPSETLSLTCAVYGGSFSGYYWSWIRQPPGKGLEWIGEITHSGRSNYNPSLKSRVTISVDTSKNQFSLKLSSVTAADTAVYYCARSSIMSDYWGQGTLVTVSSTSGQAGQHHHHHHGAYPYDVPDYAS no binding

Can you share its binding result? I mean this binder: ET200-081 (scFv, screened as phage clone; entry is VL-linker-VH-His tag-HA tag) scFv: QSALTQPASVSGSPGQSITISCTGTSSDIGGYNYVSWYQQHPGKAPKLMIYDVSNRPSGVSNRFSGSKSGNTASLTISGLQAEDEADYYCISYTRTWNPYVFGSGTKVTVLGSRGGGGSGGGGSGGGGSLEMAEVQLVQSGGGVVQPGGSLRLSCAASGFTFDDYAMHWVRQAPGKGLEWVSLISGDGGSTYYADSVKGRFTISRDNSKNSLYLQMNSLRTEDTALYYCAKDRAAAGYYYYGMDVWGQGTTVTVSSTSGQAGQHHHHHHGAYPYDVPDYAS no binding

Can you share its binding result? I mean this binder: ET200-044 (scFv, screened as phage clone; entry is VL-linker-VH-His tag-HA tag) scFv: QSVLTQPPSVSVSPGQTATIACSGHKLGDKYASWYQQKSGQSPVLIIYQDNKRPSGIPERFSGSNSGNTATLTISGTQALDEADYYCQAWDSSTYVAFGGGTKLTVLGSRGGGGSGGGGSGGGGSLEMAQVQLQESGPGLVKPSETLSLTCVVSGGSISSSNWWSWVRQPPGKGLEWIGEIYHSGSPNYNPSLKSRVTISVDKSKNQFSLKLSSVTAADTAVYYCARMTTHTFGYDAWGQGTLVTVSSTSGQAGQHHHHHHGAYPYDVPDYAS no binding
